Tested on: HBV replication in HepG2.2.15 cells
Assay: HBV replication inhibition assay (BDNA assay)
Type: cell-based
Conditions: Hepatitis B virus, HepG2.2.15, 144 h, read-out: Activity in BDNA-assay (EC50)

{"MOLECULE": "O=C(Nc1ccccc1)N1CCc2[nH]nc(-c3ccccc3)c2C1 [Compound 022]", "EC50": "100 to 500 nM"}

From: patent US10077264B2
